Entry source: the supplement of paper PMC3545927

# Assay target: furin, P09958;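 also: purified furin at 1:10 enzyme:substrate in 50 mM HEPES pH 7.5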
# Sequence (P09958 whole entry): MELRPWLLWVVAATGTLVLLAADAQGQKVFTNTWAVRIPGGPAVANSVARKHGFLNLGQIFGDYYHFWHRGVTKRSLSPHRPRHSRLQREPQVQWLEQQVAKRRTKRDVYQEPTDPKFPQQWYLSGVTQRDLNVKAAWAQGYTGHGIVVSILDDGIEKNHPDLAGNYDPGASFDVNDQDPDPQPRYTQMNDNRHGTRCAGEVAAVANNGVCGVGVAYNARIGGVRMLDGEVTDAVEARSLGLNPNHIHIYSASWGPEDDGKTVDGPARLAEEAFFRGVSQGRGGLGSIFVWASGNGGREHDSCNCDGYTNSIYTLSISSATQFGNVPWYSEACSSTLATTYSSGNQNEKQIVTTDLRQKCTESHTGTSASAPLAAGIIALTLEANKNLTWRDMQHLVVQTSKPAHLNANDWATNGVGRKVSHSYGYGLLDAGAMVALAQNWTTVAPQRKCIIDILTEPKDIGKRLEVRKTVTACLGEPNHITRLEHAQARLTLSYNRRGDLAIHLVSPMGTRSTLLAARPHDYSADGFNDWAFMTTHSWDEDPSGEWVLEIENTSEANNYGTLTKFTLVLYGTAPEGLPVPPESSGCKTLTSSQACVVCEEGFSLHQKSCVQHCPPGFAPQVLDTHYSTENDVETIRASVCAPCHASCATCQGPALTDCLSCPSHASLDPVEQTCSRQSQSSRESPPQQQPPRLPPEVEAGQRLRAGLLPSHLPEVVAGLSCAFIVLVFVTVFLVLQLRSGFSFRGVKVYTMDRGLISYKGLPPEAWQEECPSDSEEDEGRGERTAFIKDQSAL
# Assay remarks: furin cleavage Z-score vs untreated control; higher = more cleavage, active = 3.5 or more, inactive = 1 or less, 8 variable residues between constant flanks
# Recorded conditions: 15 min
Some of the results follow. The true hit rate is not given.
Possible outcomes: active, inactive

[[record]]
sequence_content = "CARKRRSLGDAGNASASA [FS-2976]"
class_label = "active"

[[record]]
sequence_content = "CASKGRRRKDAGNASASA [FS-1656]"
class_label = "active"

[[record]]
sequence_content = "CARKRRVRKDAGNASASA [FS-1560]"
class_label = "active"

[[record]]
sequence_content = "CARFGRQDEGAGNASASA [FS-1947]"
class_label = "inactive"

[[record]]
sequence_content = "CARTIRSFEGAGNASASA [FS-2240]"
class_label = "active"

[[record]]
sequence_content = "CACTMLVCGDAGNASASA [HC1526]"
class_label = "inactive"

